- RUN_DESCRIPTION: Oral bioavailability in rat at 10 mg/kg
- Assay type: ADME, organism-based
- MEASUREMENT_CONDITIONS: in vivo
OBSERVABLE: bioavailability (%)
Provide only the numeric value, understood in %.

Briefly, bioavailability measured for Cc1n[nH]c(=O)cc1-c1ccc(OC2CCN(C3CCC3)CC2)cc1 : 68

====

- SYSTEM_NAME: UniProt Q12809
- Sequence (Q12809 whole entry): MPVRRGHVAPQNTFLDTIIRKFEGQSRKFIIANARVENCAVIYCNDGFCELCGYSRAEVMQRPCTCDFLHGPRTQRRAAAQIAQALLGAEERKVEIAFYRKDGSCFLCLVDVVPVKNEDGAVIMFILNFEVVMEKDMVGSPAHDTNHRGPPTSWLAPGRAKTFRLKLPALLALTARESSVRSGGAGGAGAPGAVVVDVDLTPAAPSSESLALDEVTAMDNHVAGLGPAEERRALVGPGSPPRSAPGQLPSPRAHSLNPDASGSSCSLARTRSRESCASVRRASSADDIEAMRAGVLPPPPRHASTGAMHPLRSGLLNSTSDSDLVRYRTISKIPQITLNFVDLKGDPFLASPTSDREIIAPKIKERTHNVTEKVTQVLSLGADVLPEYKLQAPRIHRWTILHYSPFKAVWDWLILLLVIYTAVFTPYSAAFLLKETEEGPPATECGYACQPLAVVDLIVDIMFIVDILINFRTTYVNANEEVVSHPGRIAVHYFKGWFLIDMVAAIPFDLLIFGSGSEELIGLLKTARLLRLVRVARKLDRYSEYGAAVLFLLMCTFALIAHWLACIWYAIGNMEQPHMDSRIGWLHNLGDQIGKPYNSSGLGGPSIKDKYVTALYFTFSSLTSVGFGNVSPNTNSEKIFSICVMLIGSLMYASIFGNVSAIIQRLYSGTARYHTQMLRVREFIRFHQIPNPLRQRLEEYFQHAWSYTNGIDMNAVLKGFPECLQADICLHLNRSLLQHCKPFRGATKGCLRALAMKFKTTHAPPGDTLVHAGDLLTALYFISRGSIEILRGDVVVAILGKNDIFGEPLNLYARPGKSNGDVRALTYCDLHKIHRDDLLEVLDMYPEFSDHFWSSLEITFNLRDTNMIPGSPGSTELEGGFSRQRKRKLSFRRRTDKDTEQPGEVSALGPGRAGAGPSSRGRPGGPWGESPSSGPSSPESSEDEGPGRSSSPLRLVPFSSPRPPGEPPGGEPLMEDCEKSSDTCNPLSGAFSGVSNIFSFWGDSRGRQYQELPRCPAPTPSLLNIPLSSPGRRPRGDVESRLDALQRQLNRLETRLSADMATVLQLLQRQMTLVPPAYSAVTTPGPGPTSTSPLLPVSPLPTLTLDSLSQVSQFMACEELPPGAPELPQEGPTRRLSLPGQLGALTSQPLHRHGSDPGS
- RUN_DESCRIPTION: Inhibition of human ERG by patch clamp assay
IC50 by entry:
Provide only the numeric value, understood in µM.

{"LINE_NOTATION": "Cc1n[nH]c(=O)cc1-c1ccc(OC2CCN(C3CCC3)CC2)cc1", "IC50 / µM": 7}

We now examine a further molecule.
Entry O=c1cc(-c2ccc(OC3CCN(C4CCC4)CC3)cc2)cn[nH]1 , UniProt Q12809 data, IC50 value: 2

====

- RUN_DESCRIPTION: Apparent permeability of the compound across human Caco2 cells
- Assay type: ADME, cell-based
- MEASUREMENT_CONDITIONS: Caco-2
OBSERVABLE: Papp (×10⁻⁶ cm/s)
Provide only the numeric value, understood in ×10⁻⁶ cm/s.

Briefly, Papp measured for Cc1n[nH]c(=O)cc1-c1ccc(OC2CCN(C3CCC3)CC2)cc1 : 14.9

====

- RUN_DESCRIPTION: Cmax in po dosed rat
- Assay type: ADME, organism-based
- Set-up: route oral
- MEASUREMENT_CONDITIONS: in vivo
OBSERVABLE: Cmax
Include the unit right after the number.

{"COMPOUND": "CC1=NNC(=O)CC1c1ccc(OC2CCN(C3CCC3)CC2)cc1 (configuration not stated)", "VALUE_OBSERVED": "73 ng/mL"}

We now examine a further compound.
Briefly, Cmax measured for Cc1nn(C)c(=O)cc1-c1ccc(OC2CCN(C3CCC3)CC2)cc1 : 107 ng/mL

====

- RUN_DESCRIPTION: Aqueous solubility of the compound at pH 2
- Format: physicochemical
- MEASUREMENT_CONDITIONS: buffer
OBSERVABLE: solubility

Briefly, solubility measured for Cc1n[nH]c(=O)cc1-c1ccc(OC2CCN(C3CCC3)CC2)cc1 : > 140 µg/mL

====

- RUN_DESCRIPTION: Clearance in rat at 1 mg/kg, iv
- Type: ADME, organism-based
- Set-up: dose 1 mg/kg, route intravenous
- MEASUREMENT_CONDITIONS: in vivo
OBSERVABLE: clearance (mL/min/kg)
Provide only the numeric value, understood in mL/min/kg.

Below, 3 compounds whose answers are already recorded.
{"LINE_NOTATION": "Cc1cccc(-n2nc(C)c(-c3ccc(OC4CCN(C5CCC5)CC4)cc3)cc2=O)n1", "VALUE_OBSERVED": 16}
{"LINE_NOTATION": "Cc1nn(-c2ccccn2)c(=O)cc1-c1ccc(OC2CCN(C3CCC3)CC2)cc1", "VALUE_OBSERVED": 13}
{"LINE_NOTATION": "Cc1cccnc1-n1nc(C)c(-c2ccc(OC3CCN(C4CCC4)CC3)cc2)cc1=O", "VALUE_OBSERVED": 11}

Briefly, clearance measured for Cc1n[nH]c(=O)cc1-c1ccc(OC2CCN(C3CCC3)CC2)cc1 : 25

====

- RUN_DESCRIPTION: Tmax in rat at 10 mg/kg, po
- Type: ADME, organism-based
- Design: dose 10 mg/kg, route oral
- MEASUREMENT_CONDITIONS: in vivo
OBSERVABLE: Tmax (h)
Provide only the numeric value, understood in h.

{"LINE_NOTATION": "C[C@@H]1CCCN1CCCOc1ccc(-c2cn[nH]c(=O)c2)cc1", "QUANTITY_UNIT": "h", "Tmax": 2}

We now examine a further molecule.
Briefly, Tmax measured for Cc1n[nH]c(=O)cc1-c1ccc(OC2CCN(C3CCC3)CC2)cc1 : 1

====

- SYSTEM_NAME: Histamine H3 receptor (Homo sapiens)
- Sequence (Q9Y5N1 whole entry): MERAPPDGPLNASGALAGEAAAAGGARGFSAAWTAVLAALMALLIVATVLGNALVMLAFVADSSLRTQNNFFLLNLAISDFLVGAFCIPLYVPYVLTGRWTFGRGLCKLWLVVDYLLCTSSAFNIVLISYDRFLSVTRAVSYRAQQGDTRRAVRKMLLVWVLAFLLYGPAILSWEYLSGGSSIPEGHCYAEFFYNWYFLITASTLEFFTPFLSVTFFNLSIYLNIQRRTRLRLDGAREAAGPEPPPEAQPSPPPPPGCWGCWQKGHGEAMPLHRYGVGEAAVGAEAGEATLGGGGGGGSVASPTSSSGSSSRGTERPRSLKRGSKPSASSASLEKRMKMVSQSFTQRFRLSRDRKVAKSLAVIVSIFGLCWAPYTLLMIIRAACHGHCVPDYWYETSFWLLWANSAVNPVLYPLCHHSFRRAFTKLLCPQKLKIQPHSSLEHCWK
- RUN_DESCRIPTION: Inverse agonist activity at human histamine H3 histamine receptor by [35S]GTPgammaS binding assay
OBSERVABLE: EC50 (nM)
Provide only the numeric value, understood in nM.

Briefly, EC50 measured for Cc1n[nH]c(=O)cc1-c1ccc(OC2CCN(C3CCC3)CC2)cc1 : 1.1

====

Sequence of the target: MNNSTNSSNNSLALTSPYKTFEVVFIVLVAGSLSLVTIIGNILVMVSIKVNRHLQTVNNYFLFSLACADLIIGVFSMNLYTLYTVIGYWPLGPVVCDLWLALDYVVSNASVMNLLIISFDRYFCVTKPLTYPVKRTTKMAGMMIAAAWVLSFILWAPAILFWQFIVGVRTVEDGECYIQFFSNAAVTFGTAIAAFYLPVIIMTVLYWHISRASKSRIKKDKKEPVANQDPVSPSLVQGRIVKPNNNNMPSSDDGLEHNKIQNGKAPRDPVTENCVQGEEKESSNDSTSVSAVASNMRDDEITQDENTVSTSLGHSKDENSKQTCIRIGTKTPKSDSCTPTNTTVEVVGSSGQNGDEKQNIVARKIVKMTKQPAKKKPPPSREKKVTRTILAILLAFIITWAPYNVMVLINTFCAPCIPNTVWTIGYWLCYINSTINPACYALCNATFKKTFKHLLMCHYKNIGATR
OBSERVABLE: IC50 (nM)
Provide only the numeric value, understood in nM.

Briefly, IC50 measured for Cc1nn(-c2ccccn2)c(=O)cc1-c1ccc(OC2CCN(C3CCC3)CC2)cc1 : 340

====

- RUN_DESCRIPTION: Oral bioavailability in rat at 5 mg/kg
- Type: ADME, organism-based
- MEASUREMENT_CONDITIONS: in vivo
bioavailability by entry:
Provide only the numeric value, understood in %.

Below, 2 molecules whose answers are already recorded.
{"LINE_NOTATION": "Cc1cccnc1-n1nc(C)c(-c2ccc(OC3CCN(C4CCC4)CC3)cc2)cc1=O", "QUANTITY_UNIT": "%", "VALUE_OBSERVED": 23}
{"LINE_NOTATION": "Cc1cccc(-n2nc(C)c(-c3ccc(OC4CCN(C5CCC5)CC4)cc3)cc2=O)n1", "QUANTITY_UNIT": "%", "VALUE_OBSERVED": 20}

Briefly, bioavailability measured for Cc1nn(-c2ccccn2)c(=O)cc1-c1ccc(OC2CCN(C3CCC3)CC2)cc1 : 22

====

- RUN_DESCRIPTION: Cmax in rat at 10 mg/kg, po
- Assay type: ADME, organism-based
- Parameters: dose 10 mg/kg, route oral
- MEASUREMENT_CONDITIONS: in vivo
OBSERVABLE: Cmax (ng/mL)
Provide only the numeric value, understood in ng/mL.

{"LINE_NOTATION": "Cc1n[nH]c(=O)cc1-c1ccc(OC2CCN(C3CCC3)CC2)cc1", "QUANTITY_UNIT": "ng/mL", "Cmax": 673}

We now examine a further molecule.
Briefly, Cmax measured for C[C@@H]1CCCN1CCCOc1ccc(-c2cn[nH]c(=O)c2)cc1 : 446

====

Kp at 6 h by entry:
- RUN_DESCRIPTION: Ratio of drug level in brain to plasma in rat at 10 mg/kg, ip after 6 hrs
- Type: ADME, organism-based
- Parameters: dose 10 mg/kg, route intraperitoneal
- MEASUREMENT_CONDITIONS: read-out: BPR

Below, 4 molecules whose answers are already recorded.
{"LINE_NOTATION": "Cc1nn(-c2ccccn2)c(=O)cc1-c1ccc(OC2CCN(C3CCC3)CC2)cc1", "Kp at 6 h": 1.6}
{"LINE_NOTATION": "Cc1cccnc1-n1nc(C)c(-c2ccc(OC3CCN(C4CCC4)CC3)cc2)cc1=O", "Kp at 6 h": 1}
{"LINE_NOTATION": "C[C@@H]1CCCN1CCCOc1ccc(-c2cn[nH]c(=O)c2)cc1", "Kp at 6 h": 1.8}
{"LINE_NOTATION": "Cc1n[nH]c(=O)cc1-c1ccc(OC2CCN(C3CCC3)CC2)cc1", "Kp at 6 h": 2.3}

We now examine a further molecule.
Briefly, Kp at 6 h measured for Cc1cccc(-n2nc(C)c(-c3ccc(OC4CCN(C5CCC5)CC4)cc3)cc2=O)n1 : 1.6

====

- RUN_DESCRIPTION: Plasma protein binding in dog
- Type: ADME, cell-free, Canis lupus familiaris
- MEASUREMENT_CONDITIONS: read-out: PPB (converted)
OBSERVABLE: fraction unbound
Just the number, please.

Briefly, fraction unbound measured for Cc1n[nH]c(=O)cc1-c1ccc(OC2CCN(C3CCC3)CC2)cc1 : 0.57

====

Vd by entry:
- RUN_DESCRIPTION: Volume of distribution in rat at 1 mg/kg, iv
- Assay type: ADME, organism-based
- Parameters: dose 1 mg/kg, route intravenous
- MEASUREMENT_CONDITIONS: in vivo
Provide only the numeric value, understood in L/kg.

Below, 4 molecules whose answers are already recorded.
{"LINE_NOTATION": "Cc1n[nH]c(=O)cc1-c1ccc(OC2CCN(C3CCC3)CC2)cc1", "OBSERVABLE": "Vd", "QUANTITY_UNIT": "L/kg", "VALUE_OBSERVED": 3.4}
{"LINE_NOTATION": "C[C@@H]1CCCN1CCCOc1ccc(-c2cn[nH]c(=O)c2)cc1", "OBSERVABLE": "Vd", "QUANTITY_UNIT": "L/kg", "VALUE_OBSERVED": 0.8}
{"LINE_NOTATION": "Cc1nn(-c2ccccn2)c(=O)cc1-c1ccc(OC2CCN(C3CCC3)CC2)cc1", "OBSERVABLE": "Vd", "QUANTITY_UNIT": "L/kg", "VALUE_OBSERVED": 1.4}
{"LINE_NOTATION": "Cc1cccnc1-n1nc(C)c(-c2ccc(OC3CCN(C4CCC4)CC3)cc2)cc1=O", "OBSERVABLE": "Vd", "QUANTITY_UNIT": "L/kg", "VALUE_OBSERVED": 1.1}

We now examine a further molecule.
Briefly, Vd measured for Cc1cccc(-n2nc(C)c(-c3ccc(OC4CCN(C5CCC5)CC4)cc3)cc2=O)n1 : 1.7
